In this section we review reported Delta mean survival time values for a set of compounds.
# Test system: Plasmodium berghei
# Assay method text: Antimalarial activity in Plasmodium berghei infected mice (Mus musculus) after 320 mg/kg subcutaneous dose
# Format: functional
Endpoint label: Delta mean survival time

- COc1ccc2nc3c(c(O)c2c1)C(=O)CC(c1ccc(C(F)(F)F)cc1)C3 (configuration not stated): 2.3
- C/N=C1\CC(c2ccc(Cl)c(Cl)c2)Cc2c1c(=O)c1cc(Cl)ccc1n2O (configuration not stated): 10.7
- Cc1ccc(C2C/C(=N\CCCN(C)C)c3c(nc4ccc(Cl)cc4c3O)C2)cc1 (configuration not stated): 6.5
- CCC1/C(=N\CCCN(C)C)c2c(nc3ccc(Cl)cc3c2O)CC1c1ccc(C(F)(F)F)cc1 (configuration not stated): 10
- CN(C)CCC/N=C1\CC(c2ccncc2)Cc2nc3ccc(Cl)cc3c(O)c21 (configuration not stated): 2.5
- O=C1CC(c2cccc(Br)c2)Cc2c1c(=O)c1cc(Cl)ccc1n2O (configuration not stated): 10.7
- CN(C)CCC/N=C1\CC(c2ccc([N+](=O)[O-])cc2)Cc2nc3ccc(Cl)cc3c(O)c21 (configuration not stated): 11.6
- CN(C)CCC/N=C1\CC(c2ccccc2)Cc2c1c(=O)c1cc(Cl)ccc1n2O (configuration not stated): 8.8
- COc1ccc(C2C/C(=N\CCCN(C)C)c3c(n(O)c4ccc(Cl)cc4c3=O)C2)cc1 (configuration not stated): 6.5
- O=C1CC(c2ccccn2)Cc2nc3ccc(Cl)cc3c(O)c21 (configuration not stated): 7.3
- CC(C)CN(CC/N=C1\CC(c2ccc(Cl)c(Cl)c2)Cc2c1c(=O)c1cc(Cl)ccc1n2O)CC(C)C (configuration not stated): 13
- CCCC/N=C1\CC(c2ccc(Cl)c(Cl)c2)Cc2nc3ccc(Cl)cc3c(O)c21 (configuration not stated): 1.2
- COc1cc(C2C/C(=N\CCCN(C)C)c3c(n(O)c4ccc(Cl)cc4c3=O)C2)cc(OC)c1OC (configuration not stated): 4
- O=C1CC(c2ccc(Cl)c(Cl)c2)Cc2c1c(=O)c1ccccc1n2O (configuration not stated): 7.7
- O=c1c2c(n(O)c3ccc(Cl)cc13)CC(c1ccc(Cl)c(Cl)c1)C/C2=N\CCCNCCO (configuration not stated): 11.6
- O=C1CC(c2ccc(Cl)c(Cl)c2)Cc2nc3ccc(Cl)cc3c(O)c21 (configuration not stated): 10.2
- CN(C)CCC/N=C1\CC(c2cccc3ccccc23)Cc2c1c(=O)c1cc(Cl)ccc1n2O (configuration not stated): 4.7
- O=C1CC(c2ccc(C(F)(F)F)cc2)Cc2nc3ccc(Br)cc3c(O)c21 (configuration not stated): 10.6
- CN(C)CCC/N=C1/c2c([nH]c3ccc(Cl)cc3c2=O)CC(c2ccc(Cl)c(Cl)c2)C1Cc1ccccc1 (configuration not stated): 7.7
- CCN(CC)CC/N=C1\CC(c2cc(OC)c(OC)c(OC)c2)Cc2c1c(=O)c1cc(Cl)ccc1n2O (configuration not stated): 5
- CCN(CC)CC(C)(C)C/N=C1\CC(c2ccc(C(F)(F)F)cc2)Cc2nc3ccc(Cl)cc3c(O)c21 (configuration not stated): 49.6
- CSCCC/N=C1\CC(c2ccc(Cl)c(Cl)c2)Cc2c1c(=O)c1cc(Cl)ccc1n2O (configuration not stated): 4.1
- COc1ccc(C2CC(=O)c3c(n(O)c4ccc(Cl)cc4c3=O)C2)cc1 (configuration not stated): 4.6
- N=C1CC(c2cccc(C(F)(F)F)c2)Cc2c1c(=O)c1cc(Cl)ccc1n2O (configuration not stated): 7.6
- O=c1c2c(n(O)c3ccc(Cl)cc13)CC(c1cccc(C(F)(F)F)c1)C/C2=N\Cc1ccc(Cl)c(Cl)c1 (configuration not stated): 11.5
- CC1C(=O)c2c(nc3ccc(Cl)cc3c2O)CC1c1ccc(Cl)cc1Cl (configuration not stated): 17
- Cc1ccc(C2C/C(=N\CCCN(C)C)c3c(n(O)c4ccc(Cl)cc4c3=O)C2)cc1 (configuration not stated): 6
- CC1/C(=N\CCCN(C)C)c2c(n(O)c3ccc(Cl)cc3c2=O)CC1c1ccc(Cl)cc1Cl (configuration not stated): 2.8
- CSc1ccc(C2C/C(=N\CCCN(C)C)c3c(nc4ccc(Cl)cc4c3O)C2)cc1 (configuration not stated): 12.8
- CCN(CC)CC/N=C1\CC(c2ccc(Cl)c(Cl)c2)Cc2nc3ccc(Cl)cc3c(O)c21 (configuration not stated): 20
- CN(C)CCC/N=C1\CC(c2cccc(Br)c2)Cc2c1c(=O)c1cc(Cl)ccc1n2O (configuration not stated): 10.2
- O=C1CC(c2ccc(Cl)cc2Cl)Cc2nc3c(Cl)cccc3c(O)c21 (configuration not stated): 4

----------
# System: Plasmodium berghei
# Assay method text: Antimalarial activity was measured against mice (Mus musculus) infected with Plasmodium berghei by subcutaneous administration of 40 mg/kg dose
# Type: organism-based
# Design: dose 40 mg/kg, route subcutaneous
# Measurement parameters: in vivo, sc
Endpoint label: No. of toxic deaths

* CN(C)CCC/N=C1\CC(c2ccc(Cl)cc2Cl)Cc2nc3c(Cl)cccc3c(O)c21 (centres undefined) | 1
* O=c1c2c(n(O)c3ccc(Cl)cc13)CC(c1cccc(C(F)(F)F)c1)C/C2=N\CCCCN1CCCC1 (centres undefined) | 3
* CCCC/N=C1\CC(c2ccc(Cl)c(Cl)c2)Cc2nc3ccc(Cl)cc3c(O)c21 (centres undefined) | 4
* CN(C)CCC/N=C1\CC2(CCCCC2)Cc2c1c(=O)c1cc(Cl)ccc1n2O | 5

----------
# Test system: Plasmodium berghei
# Assay method text: Antimalarial activity Plasmodium berghei infected mice (Mus musculus) after 640 mg/kg subcutaneous dose
# Format: functional
Decision: Delta mean survival time >= 4 yields 1, all other cases yield 0.

• CN(C)CCC/N=C1\CC(c2ccc([N+](=O)[O-])cc2)Cc2nc3ccc(Cl)cc3c(O)c21 (stereo unspecified) = 1
• O=C1CC(c2ccc(C(F)(F)F)cc2)Cc2c1c(=O)c1cc(Cl)ccc1n2O (stereo unspecified) [FLOXACRINE] = 0
• CCc1ccc2nc3c(c(O)c2c1)/C(=N/CCCN(C)C)CC(c1ccc(C(F)(F)F)cc1)C3 (stereo unspecified) = 0
• CCCC/N=C1\CC(c2ccc(Cl)c(Cl)c2)Cc2nc3ccc(Cl)cc3c(O)c21 (stereo unspecified) = 0
• CSc1ccc(C2CC(=O)c3c(nc4ccc(Cl)cc4c3O)C2)cc1 (stereo unspecified) = 1
• COc1cc(C2C/C(=N\CCCN3CCCCC3)c3c(n(O)c4ccc(Cl)cc4c3=O)C2)cc(OC)c1OC (stereo unspecified) = 1

----------
In this section we review reported No. of toxic deaths values for a set of molecules.
# System: Plasmodium berghei
# Assay method text: Antimalarial activity was measured against mice (Mus musculus) infected with Plasmodium berghei by subcutaneous administration of 640 mg/kg dose
# Assay type: organism-based
# Set-up: dose 640 mg/kg, route subcutaneous
# Measurement parameters: in vivo, sc
Endpoint label: No. of toxic deaths

* CN(C)CCC/N=C1/c2c([nH]c3ccc(Cl)cc3c2=O)CC(c2ccc(Cl)c(Cl)c2)C1Cc1ccccc1 (centres undefined) | 5
* CN(C)CCC/N=C1\CC(c2ccc(C(F)(F)F)cc2)Cc2nc3ccc([N+](=O)[O-])cc3c(O)c21 (centres undefined) | 4
* COc1ccccc1C1CC(=O)c2c(n(O)c3ccc(Cl)cc3c2=O)C1 (centres undefined) | 3
* CC1/C(=N\CCCN(C)C)c2c(n(O)c3ccc(Cl)cc3c2=O)CC1c1ccc(C(F)(F)F)cc1 (centres undefined) | 5
* CN(C)CCC/N=C1\CC(c2ccccc2Cl)Cc2c1c(=O)c1cc(Cl)ccc1n2O (centres undefined) | 5
* CN(C)CCC/N=C1\CC(c2ccc(C(F)(F)F)cc2)Cc2nc3ccc(Cl)cc3c(O)c21 (centres undefined) | 3
* O=c1c2c(n(O)c3ccc(Cl)cc13)CC(c1ccc(C(F)(F)F)cc1)C/C2=N\CCCNCCO (centres undefined) | 4
* O=c1c2c(n(O)c3ccc(Cl)cc13)CC(c1ccc(C(F)(F)F)cc1)C/C2=N\CCCN1CCCCC1 (centres undefined) | 4
* CCN(CC)CC(C)(C)C/N=C1\CC(c2ccc(C(F)(F)F)cc2)Cc2c1c(=O)c1cc(Cl)ccc1n2O (centres undefined) | 2
* CSc1ccc(C2C/C(=N\CCCN(C)C)c3c(nc4ccc(Cl)cc4c3O)C2)cc1 (centres undefined) | 1
* CN(C)CCC/N=C1\CC(c2ccc(Cl)cc2Cl)Cc2c1c(=O)c1cc(Cl)ccc1n2O (centres undefined) | 1
* CN(C)CCC/N=C1\CC(c2ccc(C(F)(F)F)cc2)Cc2nc3cc(Cl)ccc3c(O)c21 (centres undefined) | 5
* O=C1CC(c2ccc(Cl)cc2Cl)Cc2nc3c(Cl)cccc3c(O)c21 (centres undefined) | 4
* CN(C)CCC/N=C1\CC(c2ccc(C(F)(F)F)cc2)Cc2nc3ccc(I)cc3c(O)c21 (centres undefined) | 1
